Hey, just so you know, these numbers are from PubChem BioAssay AID1851.

- tgt: Cytochrome P450 2D6 (Homo sapiens)
- assay-summary: Cytochrome panel assay with activity outcomes
- measurement-setup: recombinant CYP, pro-luciferin dealkylation, luminescence, p450-cyp2d6; series mostly up to 57.1 µM
- Method: The P450 gene superfamily is involved in the metabolism and clearance of xenobiotics. This assay used various human CYP P450 isozymes to measure the dealkylation of various pro-luciferin substrates to luciferin. The luciferin is then measured by luminescence after the addition of a luciferase detection reagent. […] Inhibitors and some substrates limit the production of luciferin, and decrease measured luminescence. […] 8, Detection, 1 sec, ViewLux luminescent read […]
In all, about 16,000 compounds went through this assay and about 2,600 (16%) were called active. Roughly 20% stayed inconclusive and do not appear here. The call rests on the fitted dose curve; in most records, active means well fitted curve in the direction sought with a large enough effect; inconclusive means small, poorly fitted or top-dose-only effect, or effect the other way; inactive means no such curve, though single readings can be large or run the other way. A selection follows.
API: response.call in active, inactive

Would you please look over these solved cases?
compound="CC(=O)N1N=C(c2cccc([N+](=O)[O-])c2)OC1c1ccccc1Cl (stereo not given)" label=inactive
compound=CN(C)c1ncc2nc(-c3cccs3)c(=O)n(Cc3cccs3)c2n1 label=inactive
compound=Fc1cccc(Cl)c1CSc1ncn[nH]1 label=inactive
compound="CC(C)(C)C1CCC(OCC(O)CN2CCN(c3ccccc3)CC2)CC1 (stereo not given)" label=active
compound=CC(C)CC(=O)O/N=C1\C(=O)N(c2ccccc2)c2ccccc21 label=inactive

Kindly consider the entry below.
Task: Test call, this compound: COCCNc1nc(-c2cccc(OC)c2)nc2ccccc12
Result: active

====

- tgt: Cytochrome P450 2D6 (Homo sapiens) (UniProt P10635)
- Sequence (P10635 whole entry, looked up): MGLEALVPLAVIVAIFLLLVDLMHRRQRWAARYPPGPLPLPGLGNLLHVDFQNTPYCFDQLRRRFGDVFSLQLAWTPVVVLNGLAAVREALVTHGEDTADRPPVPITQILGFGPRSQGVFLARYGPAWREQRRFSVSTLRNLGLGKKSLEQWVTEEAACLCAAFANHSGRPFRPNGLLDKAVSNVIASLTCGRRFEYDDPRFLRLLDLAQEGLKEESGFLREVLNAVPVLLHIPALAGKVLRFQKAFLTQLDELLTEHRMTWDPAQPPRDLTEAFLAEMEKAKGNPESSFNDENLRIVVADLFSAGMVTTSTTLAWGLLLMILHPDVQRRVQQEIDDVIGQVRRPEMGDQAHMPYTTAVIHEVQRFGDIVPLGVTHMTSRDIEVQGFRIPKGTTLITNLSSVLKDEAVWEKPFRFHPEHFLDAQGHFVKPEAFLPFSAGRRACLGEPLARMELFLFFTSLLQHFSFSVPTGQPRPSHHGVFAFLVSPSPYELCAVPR
- assay-summary: Cytochrome panel assay with activity outcomes
- measurement-setup: recombinant CYP, pro-luciferin dealkylation, luminescence, p450-cyp2d6; series mostly up to 57.1 µM
- Procedure: The P450 gene superfamily is involved in the metabolism and clearance of xenobiotics. This assay used various human CYP P450 isozymes to measure the dealkylation of various pro-luciferin substrates to luciferin. The luciferin is then measured by luminescence after the addition of a luciferase detection reagent. […] Inhibitors and some substrates limit the production of luciferin, and decrease measured luminescence. […] 8, Detection, 1 sec, ViewLux luminescent read […]
Hit rate of the full screen: of about 16,000 compounds, about 2,600 (16%) were called active. Roughly 20% stayed inconclusive and do not appear here. The call rests on the fitted dose curve; in most records, active means well fitted curve in the direction sought with a large enough effect; inconclusive means small, poorly fitted or top-dose-only effect, or effect the other way; inactive means no such curve, though single readings can be large or run the other way. Not all results are given here.
API: response.call in 1 = active, -1 = inactive

Would you please look over these solved cases?
compound=O=S1(=O)C=C(SCc2cccc(Cl)c2)Nc2ccccc21 label=1
compound=Cc1cccc(C)c1NC(=O)N1CCC(N2CCCCC2)CC1 label=-1
compound="Cc1sc2ccccc2[n+]1CCC(C)S(=O)(=O)[O-] (configuration not stated)" label=-1
compound=CSC(=NC#N)N1CCN(c2ccc(Cl)cc2)CC1 label=1
compound=O=C1NCCN1Cc1cccc(Cl)c1 label=-1
compound=Cc1cc(NC(=O)CSc2ccc3nnc(-c4ccc(F)cc4)n3n2)no1 label=-1
compound="C=CCOC(=O)C1=C(C)NC(SCC(=O)OCC)=C(C#N)C1c1ccc(C)cc1 (configuration not stated)" label=1
compound=O=C(CSC1=NCCS1)N1CCN(c2ccc(Cl)cc2)CC1 label=-1

Task: Test call, this compound: O=C(O)CN(CCOCCOCCN(CC(=O)O)CC(=O)O)CC(=O)O
Result: -1

Task: Test call, this compound: NCCCC(=O)O
Result: -1

Task: Test call, this compound: CCOC(=O)CSC1=C(C#N)C(C)C2=C(CCCC2=O)N1 (configuration not stated)
Result: -1

Task: Test call, this compound: CCCCN1CCCC[C@H]1C(=O)Nc1c(C)cccc1C
Result: 1
